All figures here come from PubChem BioAssay (NCI).

System: TK-10 renal
assay.protocol: NCI-60 one-dose screen, 48 h
measurement.parameters: 10 µM unless noted
The panel holds about 83,000 compounds, 20% with a hit somewhere; the sample as a whole holds those more often. Active and inactive are the calls of the source. The calls were made as follows: active = growth percent below 10; inactive = the rest.
Valid outcomes are listed here; reply with one: TRUE (active), FALSE (inactive)

The following molecules have reported results that may help.
{"molecule": "Cc1nc(Nc2ccc(S(=O)(=O)Nc3cc(C)on3)cc2)c2ccccc2n1", "assigned.category": "FALSE"}
{"molecule": "C=C1C(=O)O[C@H]2[C@H]1CC/C(COC(=O)/C=C\\C(=O)NCc1ccc(Cn3c(=O)sn(-c4ccc(OC)cc4)c3=O)cc1)=C\\CC[C@@]1(C)O[C@@H]21", "assigned.category": "TRUE"}
{"molecule": "C=C(C)[C@@H]1CC[C@]2(CO)CC[C@]3(C)[C@H](CC[C@@H]4[C@@]5(C)C=C(C#N)C(=O)C(C)(C)[C@@H]5CC[C@]43C)[C@@H]12", "assigned.category": "FALSE"}
{"molecule": "O=C(NCCOCCOCCNc1cccc2c1C(=O)N(C1CCCNC1=O)C2=O)c1cc2c(o1)C(=O)c1ccccc1C2=O (configuration not stated)", "assigned.category": "TRUE"}
{"molecule": "CCOc1ccc(S(=O)(=O)c2ccc(C)cc2)c2c1no[n+]2[O-]", "assigned.category": "FALSE"}
{"molecule": "COc1ccc(N=c2nc3sc4cc(Cl)ccc4n3c(N)c2C#N)cc1", "assigned.category": "FALSE"}

# input Kindly provide the recorded test outcome for the following molecule: `Cn1cc(-c2ccc3nc(-c4ccc(CC(=O)Nc5cc(C(C)(C)C)no5)cc4)cnc3c2)cn1`
# output FALSE

# input Kindly provide the recorded test outcome for the following molecule: `CCCCCOC(=O)c1cccc(NC(=O)CN(CC)CC)c1`
# output FALSE

# input Kindly provide the recorded test outcome for the following molecule: O=C1Nc2ccccc2/C1=N/N=C/c1ccc(OC2OC(CO)C(O)C(O)C2O)cc1 (configuration not stated)
# output FALSE

###

Test system: SK-MEL-5 melanoma
assay.protocol: NCI-60 one-dose screen, 48 h
measurement.parameters: 10 µM unless noted
This is part of a sample that, as a whole, favours compounds with a hit. Of some 83,000 tested, about 20% had one in any assay. Calls of active or inactive are those of the source. The calls were made as follows: active = growth percent below 10; inactive = the rest.
Valid outcomes are listed here; reply with one: Y (active), N (inactive)

The following compounds have reported results that may help.
{"compound": "O=C(Nc1cccc2[nH]c(C(F)(F)F)nc12)c1cc(Cl)ccc1Cl", "assigned.category": "Y"}
{"compound": "CNC(=O)c1cc(Oc2ccc3nc(NC(=O)Nc4cc(C(F)(F)F)cc(C(F)(F)F)c4)sc3c2)ccn1", "assigned.category": "Y"}
{"compound": "C=CC(=O)Nc1cccc(C)c1Nc1cc(-c2cccnc2Cc2c(C)c(OC)cc(OC)c2C)ncn1", "assigned.category": "N"}

# input Kindly provide the recorded test outcome for the following compound: O=[N+]([O-])c1ccccc1C(O)Cc1ccc2ccccc2n1 (configuration not stated)
# output N

# input Kindly provide the recorded test outcome for the following compound: `N#C/C(=C\c1ccc(Br)cc1)n1nnc2ccccc21`
# output Y

# input Kindly provide the recorded test outcome for the following compound: `Clc1ccc(-c2cn(-c3ccccc3)c(-c3ccccc3)n2)cc1`
# output N

# input Kindly provide the recorded test outcome for the following compound: `CCCCCCNc1cc(C)nc2ccc(OC)cc12`
# output N

# input Kindly provide the recorded test outcome for the following compound: `COc1ccc2c(c1)/C(=C\c1sc(=S)[nH]c1O)C(C(=O)O)=N2`
# output N

# input Kindly provide the recorded test outcome for the following compound: `Nc1ccc(S(=O)(=O)Nc2ccsc2-c2nc(-c3ccccc3)no2)cc1`
# output N

# input Kindly provide the recorded test outcome for the following compound: `Clc1cnc(Nc2ccc(OCCN3CCCC3)cc2)nc1NCc1ccco1`
# output N

# input Kindly provide the recorded test outcome for the following compound: `Cc1cc(C(c2ccccc2)c2ccccc2)ccc1NS(=O)(=O)c1ccccc1`
# output N

# input Kindly provide the recorded test outcome for the following compound: `N#Cc1c(N)n2c(nc1=Nc1ccc(Cl)cc1)sc1cc(Cl)ccc12`
# output N

# input Kindly provide the recorded test outcome for the following compound: `Cc1cc(N(CCCNc2ccnc3cc(Cl)ccc23)Cc2ccccn2)nc(N2CCCC2)n1`
# output N
